System: P32-ISH (Burkitt's Lymphoma);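 note: after 72 h of two-drug dosing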
Assay: Bliss excess, mean over the matrix (fraction); higher = more synergy
Please respond with reported Bliss excess for every item in the list.
Give bare numbers.

Use these answered entries as a reference point.
molecule="Cc1c2c(nn1C)CSCc1cc(n(C)n1)CSc1cc(c3ccccc3c1)OCCCc1c(C(=O)O)n(C)c3c-2c(Cl)ccc13 [AZD5991] + Cn1cnc2c(F)c(Nc3ccc(Br)cc3Cl)c(C(=O)NOCCO)cc21 [Selumetinib] (first compound max 1 µM, 7x7, partner max 3 µM)" measurement=0.0025
molecule="CN(CCO)CC[C@H](CSc1ccccc1)Nc1ccc(S(=O)(=O)NC(=O)c2ccc(N3CCC([C@@H](O)c4ccccc4-c4ccc(Cl)cc4)CC3)cc2)cc1S(=O)(=O)C(F)(F)F [AZD4320] + C[C@@H](Nc1cc(F)cc(F)c1)c1cc(C(=O)N(C)C)cc2c(=O)cc(N3CCOCC3)oc12 [AZD8186] (first compound max 1 µM, 7x7, partner max 3 µM)" measurement=0.0526
molecule="Cn1cnc2c(F)c(Nc3ccc(Br)cc3Cl)c(C(=O)NOCCO)cc21 [Selumetinib] + C=CCn1c(=O)c2cnc(Nc3ccc(N4CCN(C)CC4)cc3)nc2n1-c1cccc(C(C)(C)O)n1 [AZD1775] (first compound max 10 µM, partner max 1 µM)" measurement=-0.0186
molecule="C[C@@H](c1ccc2nccn2c1)n1nnc2ncc(-c3cnn(C)c3)nc21 [Savolitinib] + Cc1c2c(nn1C)CSCc1cc(n(C)n1)CSc1cc(c3ccccc3c1)OCCCc1c(C(=O)O)n(C)c3c-2c(Cl)ccc13 [AZD5991] (first compound max 1 µM, 7x7, partner max 1 µM)" measurement=-0.0162
molecule="Cn1cnc2c(F)c(Nc3ccc(Br)cc3Cl)c(C(=O)NOCCO)cc21 [Selumetinib] + CC(C)n1c(=O)n(C)c2cnc3cc(F)c(-c4ccc(OCCCN5CCCCC5)nc4)cc3c21 [AZD1390] (first compound max 10 µM, 7x7, partner max 0.3 µM)" measurement=-0.0083

Quick request: Bliss excess for each listed item, please.
1. COc1cc2ncnc(Nc3ccc(F)c(Cl)c3)c2cc1OCCCN1CCOCC1 [Gefitinib] + CC(C)n1c(=O)n(C)c2cnc3cc(F)c(-c4ccc(OCCCN5CCCCC5)nc4)cc3c21 [AZD1390] (first compound max 10 µM, 7x7, partner max 0.3 µM)
2. CN(CCO)CC[C@H](CSc1ccccc1)Nc1ccc(S(=O)(=O)NC(=O)c2ccc(N3CCC([C@@H](O)c4ccccc4-c4ccc(Cl)cc4)CC3)cc2)cc1S(=O)(=O)C(F)(F)F [AZD4320] + C1CN(CCC1(C(=O)N[C@@H](CCO)C2=CC=C(C=C2)Cl)N)C3=NC=NC4=C3C=CN4 [Capivasertib] (first compound max 1 µM, 7x7, partner max 3 µM)
3. COc1cccc(OCCCN)c1-c1cc(Nc2cnc(C#N)cn2)n[nH]1 [Prexasertib] + O=C(c1cc(Cc2n[nH]c(=O)c3ccccc23)ccc1F)N1CCN(C(=O)C2CC2)CC1 [Olaparib] (first compound max 1 µM, 7x7, partner max 10 µM)
4. Cc1c2c(nn1C)CSCc1cc(n(C)n1)CSc1cc(c3ccccc3c1)OCCCc1c(C(=O)O)n(C)c3c-2c(Cl)ccc13 [AZD5991] + C=CCn1c(=O)c2cnc(Nc3ccc(N4CCN(C)CC4)cc3)nc2n1-c1cccc(C(C)(C)O)n1 [AZD1775] (first compound max 1 µM, partner max 1 µM)
5. COc1cccc(OCCCN)c1-c1cc(Nc2cnc(C#N)cn2)n[nH]1 [Prexasertib] + Cc1cc2ncnn2cc1Nc1ncc2c(n1)n(C1CCOCC1)c(=O)n2C [AZD7648] (first compound max 1 µM, 7x7, partner max 10 µM)
6. CN(C)CCCOc1ccc(-c2ccc3ncc4c(c3c2)n(C2CCOCC2)c(=O)n4C)cn1 [AZD0156] + CCN(CCO)CCCOc1ccc2c(Nc3cc(CC(=O)Nc4cccc(F)c4)[nH]n3)ncnc2c1 [AZD2811] (first compound max 1 µM, 7x7, partner max 1 µM)
7. COc1cccc(OCCCN)c1-c1cc(Nc2cnc(C#N)cn2)n[nH]1 [Prexasertib] + CCc1c2c(nc3ccc(O)cc13)-c1cc3c(c(=O)n1C2)COC(=O)[C@]3(O)CC [SN-38] (first compound max 1 µM, 7x7, partner max 0.3 µM)

Response:
[-0.0116, 0.001, -0.0205, -0.0228, -0.0068, -0.0042, -0.0201]

Request: Value lookup for Bliss excess; key = CC1(C)CCC(CN2CCN(c3ccc(C(=O)NS(=O)(=O)c4ccc(NCC5CCOCC5)c([N+](=O)[O-])c4)c(Oc4cnc5[nH]ccc5c4)c3)CC2)=C(c2ccc(Cl)cc2)C1 [Venetoclax] + C[C@@H]1COCCN1C2=NC(=NC(=C2)C3(CC3)[S@](=N)(=O)C)C4=C5C=CNC5=NC=C4 [AZD6738] (first compound max 1 µM, 7x7, partner max 10 µM)
Response: 0.0365
